system: PC-3; experiment: NCI tumour cell line growth inhibition, 48 h
The source made the active and inactive calls. Cut-off read from the data, not from the text of the source: active = GI50 up to about 1.1 µM and inactive = higher.
Catalogue of GI50 values

Value lookup for GI50; key = COc1ccc(S(=O)(=O)Nc2ccc(-c3csc(N4C(=O)/C(=C/c5ccccc5)N=C4c4ccccc4)n3)cc2)cc1Cl
25.4 µM (inactive)

// returns reported GI50 for input CN(C)C(=C1c2cc([N+](=O)[O-])ccc2-c2ccc([N+](=O)[O-])cc21)N(C)C
> 100 µM (inactive)

Need GI50 of Cc1nc(N)sc1/N=N/c1cc(Cl)c([N+](=O)[O-])cc1Cl , thanks.
18.7 µM (inactive)

Entry under review: CCOC(=O)c1ccc(/N=C2\S/C(=C\C(=S)Nc3ccccc3)N(c3ccccc3)\C2=N/c2ccc(C(=O)OCC)cc2)cc1 . Reported GI50?
> 100 µM (inactive)

Recorded GI50 for O=[N+]([O-])c1cc(Cl)ccc1S(=O)(=O)N1CCCc2cc(Cl)ccc21 , please?
55 µM (inactive)

# lookup: GI50 of Cc1cccc2c(NCCN(C)C)c3cccc(C(=O)NCCN(C)C)c3nc12
0.356 µM (active)

Which GI50 reading was recorded for the compound Cc1sc2nc3n(c(=O)c2c1C)N=CN(c1ccc(Cl)cc1)C3 ?
> 100 µM (inactive)

Give its GI50 value. Item: C=CCCCN1C(=O)C2C3c4ccccc4C(C=O)(c4ccccc43)C2C1=O (configuration not stated)
6.18 µM (inactive)

GET /values?readout=GI50&item= Cc1ccc(N(C(=O)Nc2ccc(F)c(Cl)c2)C2=NCC(C)S2)cc1 (configuration not stated)
46.7 µM (inactive)

Ref: ChEMBL document CHEMBL1201862
